meta.source: patent US10053417B2

What pKi was measured for each of the following?
biological target: human NEP (Homo sapiens); construct: 1182-ZN; assay: In vitro enzyme inhibition assay, inhibitor potency at human NEP (Assay 1); details: recombinant human NEP; fluorogenic peptide substrate 10 μM; 37° C.; values given as ranges
pKi: −log10 of the molar value.

input: Please report the recorded pKi for O=C(NNc1ccc(Br)cc1)C(=O)N[C@H](Cc1ccc(-c2cccc(Cl)c2)cc1)C[C@@H](O)C(=O)O [Example 6-14] .
output: 8.00 to 9.00

input: Now try N#CC1CCCN(C(=O)C(=O)N[C@H](Cc2ccc(-c3cccc(Cl)c3)cc2)C[C@@H](O)C(=O)O)C1 (stereo partly shown) [Example 4-30] .
output: 7.50 to 8.00

input: Now try O=C(N[C@H](Cc1ccc(-c2cccc(Cl)c2)cc1)C[C@@H](O)C(=O)O)C(=O)N1CCC(O)CC1 [Example 4-18] .
output: ≥ 9.00

input: Now try O=C(NNC(=O)c1ccccc1[N+](=O)[O-])C(=O)N[C@H](Cc1ccc(-c2cccc(Cl)c2)cc1)C[C@@H](O)C(=O)O [Example 8-6] .
output: 8.00 to 9.00

input: Now try CS(=O)(=O)C1CCN(C(=O)C(=O)N[C@H](Cc2ccc(-c3cccc(Cl)c3)cc2)C[C@@H](O)C(=O)O)C1 (stereo partly shown) [Example 4-15] .
output: 8.00 to 9.00

input: Now try COC(=O)N1CCN(C(=O)C(=O)N[C@H](Cc2ccc(-c3cccc(Cl)c3)cc2)C[C@@H](O)C(=O)O)CC1 [Example 4-41] .
output: 8.00 to 9.00

input: Now try CC(C)OCC(=O)N[C@H](Cc1ccc(-c2cccc(Cl)c2)cc1)C[C@@H](O)C(=O)O [Example 10-4] .
output: 7.50 to 8.00

* * *

What Ki was measured for each of the following?
target: human NEP (Homo sapiens); construct: 1182-ZN; assay: In vitro enzyme inhibition assay, inhibitor potency at human NEP (Assay 1); conditions: recombinant human NEP; fluorogenic peptide substrate 10 μM; 37° C.; values given as ranges

input: Please report the recorded Ki for O=C(Nc1ccncc1)C(=O)N[C@H](Cc1ccc(-c2cccc(Cl)c2)cc1)C[C@@H](O)C(=O)O [Example 4-3] .
output: 10 to 31.6 nM

input: Now try O=C(N[C@H](Cc1ccc(-c2cccc(Cl)c2)cc1)C[C@@H](O)C(=O)O)C(=O)N1CCC[C@H](CO)C1 [Example 4-33] .
output: 1 to 10 nM

input: Now try O=C(NNc1ccccc1F)C(=O)N[C@H](Cc1ccc(-c2cccc(Cl)c2)cc1)C[C@@H](O)C(=O)O [Example 6-8] .
output: 1 to 10 nM

input: Now try O=C(Nc1ccc(Br)nc1)C(=O)N[C@H](Cc1ccc(-c2cccc(Cl)c2)cc1)C[C@@H](O)C(=O)O [Example 4-2] .
output: 10 to 31.6 nM

input: Now try O=C(N[C@H](Cc1ccc(-c2cccc(Cl)c2)cc1)C[C@@H](O)C(=O)O)C(=O)N1CCC(c2ccncc2)CC1 [Example 4-23] .
output: 10 to 31.6 nM

input: Now try O=C(N[C@H](Cc1ccc(-c2cccc(Cl)c2)cc1)C[C@@H](O)C(=O)O)C(=O)N1CCCC[C@H]1CO [Example 4-26] .
output: ≤ 1 nM

input: Now try O=C(NNc1cccc(Cl)c1)C(=O)N[C@H](Cc1ccc(-c2cccc(Cl)c2)cc1)C[C@@H](O)C(=O)O [Example 6-9] .
output: 1 to 10 nM

* * *

target: human NEP (Homo sapiens, UniProt P08473); construct: 1182-ZN; assay: In vitro enzyme inhibition assay, inhibitor potency at human NEP (Assay 1); details: recombinant human NEP; fluorogenic peptide substrate 10 μM; 37° C.; values given as ranges
Sequence (P08473 52-750 limits assumed): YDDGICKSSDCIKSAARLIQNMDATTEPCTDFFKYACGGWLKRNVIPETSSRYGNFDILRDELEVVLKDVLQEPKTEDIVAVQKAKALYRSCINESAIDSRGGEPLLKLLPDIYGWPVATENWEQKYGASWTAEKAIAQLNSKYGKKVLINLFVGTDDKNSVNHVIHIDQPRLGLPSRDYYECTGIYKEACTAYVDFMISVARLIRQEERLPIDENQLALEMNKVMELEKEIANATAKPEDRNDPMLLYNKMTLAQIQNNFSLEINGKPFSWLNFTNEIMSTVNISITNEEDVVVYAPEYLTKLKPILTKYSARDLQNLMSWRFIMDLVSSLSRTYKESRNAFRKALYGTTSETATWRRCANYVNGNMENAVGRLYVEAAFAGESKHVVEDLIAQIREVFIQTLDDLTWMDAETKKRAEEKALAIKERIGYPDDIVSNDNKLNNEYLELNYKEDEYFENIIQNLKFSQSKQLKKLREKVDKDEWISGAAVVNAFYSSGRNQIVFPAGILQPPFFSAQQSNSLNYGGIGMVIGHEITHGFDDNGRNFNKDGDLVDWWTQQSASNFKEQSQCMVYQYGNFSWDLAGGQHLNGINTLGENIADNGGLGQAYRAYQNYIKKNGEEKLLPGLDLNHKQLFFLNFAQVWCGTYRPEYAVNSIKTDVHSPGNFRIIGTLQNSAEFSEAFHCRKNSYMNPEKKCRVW
pKi: −log10 of the molar value.
measurement.type: pKi

input: Please report the recorded pKi for `O=C(NNC(=O)c1ccncc1)C(=O)N[C@H](Cc1ccc(-c2cccc(Cl)c2)cc1)C[C@@H](O)C(=O)O` .
output: 8.00 to 9.00

input: Now try `Cc1ccc(NNC(=O)C(=O)N[C@H](Cc2ccc(-c3cccc(Cl)c3)cc2)C[C@@H](O)C(=O)O)cc1` .
output: 8.00 to 9.00

input: Now try `O=C(N[C@H](Cc1ccc(-c2cccc(Cl)c2)cc1)C[C@@H](O)C(=O)O)C(=O)N1CCC(CO)CC1` .
output: ≥ 9.00

input: Now try `CCOC(=O)N1CCN(C(=O)C(=O)N[C@H](Cc2ccc(-c3cccc(Cl)c3)cc2)C[C@@H](O)C(=O)O)CC1` .
output: 7.50 to 8.00

input: Now try `O=C(CO)N[C@H](Cc1ccc(-c2cccc(Cl)c2)cc1)C[C@@H](O)C(=O)O` .
output: 8.00 to 9.00

input: Now try `O=C(NNc1ccc(F)cc1)C(=O)N[C@H](Cc1ccc(-c2cccc(Cl)c2)cc1)C[C@@H](O)C(=O)O` .
output: 8.00 to 9.00

input: Now try `C[C@@H]1CN(C(=O)C(=O)N[C@H](Cc2ccc(-c3cccc(Cl)c3)cc2)C[C@@H](O)C(=O)O)C[C@H](C)O1` .
output: 8.00 to 9.00

input: Now try `O=C(COc1ccc(O)cc1)N[C@H](Cc1ccc(-c2cccc(Cl)c2)cc1)C[C@@H](O)C(=O)O` .
output: 7.50 to 8.00

input: Now try `O=C(NNc1ccccc1Cl)C(=O)N[C@H](Cc1ccc(-c2cccc(Cl)c2)cc1)C[C@@H](O)C(=O)O` .
output: 8.00 to 9.00

input: Now try `O=C(N[C@H](Cc1ccc(-c2cccc(Cl)c2)cc1)C[C@@H](O)C(=O)O)C(=O)N1CCC(F)CC1` .
output: 7.50 to 8.00

input: Now try `CCOCCN1CCN(C(=O)C(=O)N[C@H](Cc2ccc(-c3cccc(Cl)c3)cc2)C[C@@H](O)C(=O)O)CC1` .
output: 7.50 to 8.00

input: Now try O=C(NC1CONC1=O)C(=O)N[C@H](Cc1ccc(-c2cccc(Cl)c2)cc1)C[C@@H](O)C(=O)O (some centres unmarked) .
output: 8.00 to 9.00

input: Now try `Cc1ccccc1NNC(=O)C(=O)N[C@H](Cc1ccc(-c2cccc(Cl)c2)cc1)C[C@@H](O)C(=O)O` .
output: 8.00 to 9.00

input: Now try O=C(N[C@H](Cc1ccc(-c2cccc(Cl)c2)cc1)C[C@@H](O)C(=O)O)C(=O)N1CCCC(CCO)C1 (some centres unmarked) .
output: 7.50 to 8.00

* * *

target: human NEP (Homo sapiens, UniProt P08473); construct: 1182-ZN; assay: In vitro enzyme inhibition assay, inhibitor potency at human NEP (Assay 1); conditions: recombinant human NEP; fluorogenic peptide substrate 10 μM; 37° C.; values given as ranges
pKi: −log10 of the molar value.
What pKi was measured for each of the following?

input: Please report the recorded pKi for `O=C(N[C@H](Cc1ccc(-c2cccc(Cl)c2)cc1)C[C@@H](O)C(=O)O)C(=O)N1CCC[C@H]1CO` .
output: ≥ 9.00

input: Now try `COc1ccc(NNC(=O)C(=O)N[C@H](Cc2ccc(-c3cccc(Cl)c3)cc2)C[C@@H](O)C(=O)O)cc1` .
output: 8.00 to 9.00

input: Now try `O=C(N[C@H](Cc1ccc(-c2cccc(Cl)c2)cc1)C[C@@H](O)C(=O)O)C(=O)N1CCC[C@@H](O)C1` .
output: 8.00 to 9.00

input: Now try `NC(=O)C1CCN(C(=O)C(=O)N[C@H](Cc2ccc(-c3cccc(Cl)c3)cc2)C[C@@H](O)C(=O)O)CC1` .
output: 7.50 to 8.00

input: Now try `CCOCC(=O)N[C@H](Cc1ccc(-c2cccc(Cl)c2)cc1)C[C@@H](O)C(=O)O` .
output: 7.50 to 8.00

input: Now try `O=C(N[C@H](Cc1ccc(-c2cccc(Cl)c2)cc1)C[C@@H](O)C(=O)O)C(=O)N1CCOCC1` .
output: 8.00 to 9.00

input: Now try `CON(C)C(=O)C(=O)N[C@H](Cc1ccc(-c2cccc(Cl)c2)cc1)C[C@@H](O)C(=O)O` .
output: 8.00 to 9.00

* * *

molecular target: human NEP (Homo sapiens, UniProt P08473); construct: purchased R&D Systems, Minneapolis, Minn; 1182-ZN; assay: In vitro enzyme inhibition assay, inhibitor potency at human NEP (Assay 1); format: biochemical; settings: recombinant human NEP; fluorogenic peptide substrate 10 μM; 37° C.; values given as ranges
What Ki was measured for each of the following?

input: Please report the recorded Ki for O=C(NNC(=O)c1cccnc1)C(=O)N[C@H](Cc1ccc(-c2cccc(Cl)c2)cc1)C[C@@H](O)C(=O)O [Example 8-3] .
output: 1 to 10 nM

input: Now try O=C(NOCc1ccccc1)C(=O)N[C@H](Cc1ccc(-c2cccc(Cl)c2)cc1)C[C@@H](O)C(=O)O [Example 4-5] .
output: 10 to 31.6 nM

input: Now try O=C(NNc1ccncc1)C(=O)N[C@H](Cc1ccc(-c2cccc(Cl)c2)cc1)C[C@@H](O)C(=O)O [Example 6-3] .
output: 1 to 10 nM

input: Now try Cc1ccncc1NC(=O)C(=O)N[C@H](Cc1ccc(-c2cccc(Cl)c2)cc1)C[C@@H](O)C(=O)O [Example 4-4] .
output: 1 to 10 nM

input: Now try C[C@@](CO)(C[C@@H](Cc1ccc(-c2cccc(Cl)c2)cc1)NC=O)C(=O)O [Example 13] .
output: 1 to 10 nM

input: Now try O=C(NNc1cccnc1)C(=O)N[C@H](Cc1ccc(-c2cccc(Cl)c2)cc1)C[C@@H](O)C(=O)O [Example 6-4] .
output: 1 to 10 nM
